ASSAY TARGET: Neutrophil elastase (Homo sapiens)
Sequence (P08246 whole entry): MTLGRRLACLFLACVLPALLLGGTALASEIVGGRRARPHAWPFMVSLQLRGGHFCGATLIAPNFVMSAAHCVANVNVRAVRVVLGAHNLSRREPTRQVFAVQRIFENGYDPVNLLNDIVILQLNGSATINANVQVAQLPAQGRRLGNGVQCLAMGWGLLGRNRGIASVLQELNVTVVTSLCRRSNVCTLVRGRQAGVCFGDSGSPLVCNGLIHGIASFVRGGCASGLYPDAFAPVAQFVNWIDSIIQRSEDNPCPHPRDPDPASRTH
TEST SUMMARY: Binding affinity for human leukocyte elastase(HLE) serine protease
ATTRIBUTE MEASURED: IC50

Below, 2 compounds whose answers are already recorded.
>>> endpoint_value("Cc1ccc2oc(C(=O)C(C)NC(=O)[C@H](CC(=O)N(C)C)NC(=O)[C@@H](NC(=O)CC(C)(C)C)C(C)(C)C)nc2c1 (stereo not given in full)")
"> 300 µM"
>>> endpoint_value("CC(NC(=O)[C@H](CC(=O)N(C)C)NC(=O)[C@@H](NC(=O)CC(C)(C)C)C(C)(C)C)C(=O)C(F)(F)C(F)(F)F (stereo not given in full)")
"> 300 µM"

Q: For CC(NC(=O)[C@H](CC(=O)N(C)C)NC(=O)[C@@H](NC(=O)CC(C)(C)C)C(C)(C)C)C(=O)c1nc2ccccc2o1 (stereo not given in full) , what is its reported IC50?
Result: 183 µM

Q: For CC(NC(=O)[C@H](CC(=O)N(C)C)NC(=O)[C@@H](NC(=O)CC(C)(C)C)C(C)(C)C)C(=O)c1nc2ncccc2o1 (stereo not given in full) , what is its reported IC50?
Result: > 300 µM

Q: For C[C@H](NC(=O)[C@H](CC(=O)N(C)C)NC(=O)[C@@H](NC(=O)CC(C)(C)C)C(C)(C)C)C(=O)C(F)(F)F , what is its reported IC50?
Result: > 300 µM
